The origin of these recorded values is patent US20120065123A1.

target: TNF-α (Homo sapiens, UniProt P01375); test: SPR of TNF1 lead and mutant peptides on captured TNF-α (Biacore A100); assay type: binding; settings: energetic additivity of component mutations; read-out: Predicted Kd
Sequence (P01375 77-233 limits assumed, species assumed): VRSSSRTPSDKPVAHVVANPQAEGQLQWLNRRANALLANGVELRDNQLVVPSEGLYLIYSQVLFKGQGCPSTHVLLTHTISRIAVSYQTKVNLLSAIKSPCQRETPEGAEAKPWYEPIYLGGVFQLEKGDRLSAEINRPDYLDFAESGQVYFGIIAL
Where no end group is shown, it is not given here.
Parameter measured: Kd

Field: example entries. Status: answers known.
{"Residue string": "FERSYLMMPWKFLQSRQGSC [D4S + P5Y + S11K]", "Parameter measured": "Kd", "Result value": "2.8 to 5.3 µM"}
{"Residue string": "FERYPLMMPWKFLQSRQGSC [D4Y + S11K]", "Parameter measured": "Kd", "Result value": "8 to 15 µM"}

query: Requested read-out: Kd. Entry: FERSYLKMPWKFLQSRQGSC [TNF1-opt]
result: 0.7 to 1.9 µM

query: What would you report for FERYPLKMPWSFLQSRQGSC [D4Y + M7K] ?
result: 8.5 to 20 µM

----------
target: pooled human transferrin (Homo sapiens); construct: purchased Sigma; test: High throughput SPR screening of peptides (Biacore A-100); assay type: binding; details: purified peptide, several concentrations; read-out: KD with respect to transferrin
Sequence (P02787 20-698): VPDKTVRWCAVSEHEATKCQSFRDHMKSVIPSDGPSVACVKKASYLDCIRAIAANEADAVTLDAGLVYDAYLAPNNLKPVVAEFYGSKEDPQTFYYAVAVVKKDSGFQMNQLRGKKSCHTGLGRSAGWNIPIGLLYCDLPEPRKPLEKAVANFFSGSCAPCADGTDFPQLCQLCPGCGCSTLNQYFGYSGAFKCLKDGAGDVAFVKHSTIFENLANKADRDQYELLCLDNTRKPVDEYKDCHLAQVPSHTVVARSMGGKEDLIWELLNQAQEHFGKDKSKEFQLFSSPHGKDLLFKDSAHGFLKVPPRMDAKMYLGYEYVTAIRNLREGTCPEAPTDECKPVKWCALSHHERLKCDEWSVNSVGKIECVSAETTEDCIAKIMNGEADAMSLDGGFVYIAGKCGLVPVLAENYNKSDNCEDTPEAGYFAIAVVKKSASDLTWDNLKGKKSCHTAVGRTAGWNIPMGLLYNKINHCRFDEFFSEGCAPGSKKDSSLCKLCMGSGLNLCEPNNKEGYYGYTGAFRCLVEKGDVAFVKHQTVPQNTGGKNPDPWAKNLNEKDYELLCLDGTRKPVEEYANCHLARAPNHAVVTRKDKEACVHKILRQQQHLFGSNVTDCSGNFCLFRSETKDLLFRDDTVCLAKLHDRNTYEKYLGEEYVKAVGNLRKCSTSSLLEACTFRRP
Where no end group is shown, it is not given here.
Parameter measured: Kd (µM)
Reply numerically in µM, unit not repeated.

query: Name the reported Kd value associated with the sequence ARDLLIQKNSGQDVDHRGSC [TRF101]
result: 78.9

----------
target: TNF-α (Homo sapiens); experiment: SPR of TNF1 lead and mutant peptides on captured TNF-α (Biacore A100); format: binding
Where no end group is shown, it is not given here.
Parameter measured: Kd Fold-Change Relative to Lead

A = FERDPLMMPWKFLQSRQGSC [Synbody S11K]
B = FERSYLMMPWKFLQSRQGSC [D4S + P5Y + S11K]
query: Input pair: A , B . Output: entry with lower Kd Fold-Change Relative to Lead. Reply with the label of the item you choose.
result: A

----------
molecular target: TNF-α (Homo sapiens, UniProt P01375); assay: Fluorescence anisotropy validation of TNF1-opt affinity; format: binding
Where no end group is shown, it is not given here.
Parameter measured: Kd (nM)
Express your answer in nM, writing the number without its unit.

query: What does the data say about its Kd? Entry: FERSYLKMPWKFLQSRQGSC [TNF1-opt]
result: 1100

----------
target: TNF-α (Homo sapiens, UniProt P01375); assay: SPR of TNF1 lead and mutant peptides on captured TNF-α (Biacore A100); assay type: binding; conditions: SPR equilibrium binding response; read-out: Kd (observed)
pKd: −log10 of the molar value. Where no end group is shown, it is not given here.
Parameter measured: pKd

Completed entries (count: 4):
{"Residue string": "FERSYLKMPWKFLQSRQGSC [TNF1-opt]", "pKd": 5.80}
{"Residue string": "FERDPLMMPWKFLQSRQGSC [Synbody S11K]", "pKd": 4.40}
{"Residue string": "FERSYLMMPWKFLQSRQGSC [D4S + P5Y + S11K]", "pKd": 5.15}
{"Residue string": "FERYPLMMPWSFLQSRQGSC [Synbody D4Y]", "pKd": 4.36}

P = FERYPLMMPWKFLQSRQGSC [D4Y + S11K]
Q = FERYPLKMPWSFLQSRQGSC [D4Y + M7K]
query: Larger number for pKd: P , or Q ? Choose, then provide that item's label.
result: P
